- testMethodNotes: Pharmacokinetic study, s.c., plasma LC-MS/MS
- Format: in vivo
- measurementContext: sc; rats, 40 mg/rat s.c., plasma; read-out: Cmax
outcomeMeasure: Cmax (ng/mL)
Respond with the bare value in ng/mL.

Please report the recorded Cmax for Cc1ncc([N+](=O)[O-])n1CCO [Metronidazole] .
23000

---

- testMethodNotes: Pharmacokinetic study, s.c., plasma LC-MS/MS
- Format: in vivo
- measurementContext: sc; rats, 40 mg/rat s.c., plasma
outcomeMeasure: half-life (h)
Respond with the bare value in h.

Please report the recorded half-life for Cc1ncc([N+](=O)[O-])n1CCO .
4.39

---

- testMethodNotes: Pharmacokinetic study, s.c., plasma LC-MS/MS
- Assay type: in vivo
- measurementContext: plasma, sc; rats, 40 mg/rat s.c.
outcomeMeasure: MRT (h)
Respond with the bare value in h.

Please report the recorded MRT for Cc1ncc([N+](=O)[O-])n1CCO [Metronidazole] .
7.63

---

- testMethodNotes: Pharmacokinetic study, s.c., plasma LC-MS/MS
- Assay type: in vivo
- measurementContext: sc; rats, 40 mg/rat s.c., plasma
outcomeMeasure: Tmax
Field: value (include unit after the number)

Please report the recorded Tmax for Cc1ncc([N+](=O)[O-])n1CCO [Metronidazole] .
1.75 h

---

- Tested on: Rat Calvarial Osteoblasts (RCOs)
- testMethodNotes: ALP assay (osteoblast differentiation) in rat calvarial osteoblasts
- Type: cell-based
- measurementContext: Rattus norvegicus, Calvarial osteoblast, 48 h in osteoblast differentiation media
outcomeMeasure: EC50

[[record]]
molecule = "O=C(Cn1ccnc1[N+](=O)[O-])NCCO"
outcomemeasure = "EC50"
valuemeasured = "0.4 µM"

[[record]]
molecule = "Cc1ncc([N+](=O)[O-])n1CC(O)CCl (stereo not drawn)"
outcomemeasure = "EC50"
valuemeasured = "> 10 µM"

[[record]]
molecule = "Cc1ncc([N+](=O)[O-])n1CCO"
outcomemeasure = "EC50"
valuemeasured = "0.0012 µM"

[[record]]
molecule = "Cc1ncc([N+](=O)[O-])n1CC(C)O (stereo not drawn)"
outcomemeasure = "EC50"
valuemeasured = "> 10 µM"

[[record]]
molecule = "Cn1c([N+](=O)[O-])cnc1COC(N)=O"
outcomemeasure = "EC50"
valuemeasured = "> 10 µM"


For the next question, use this molecule.
Query for Rat Calvarial Osteoblasts (RCOs): what EC50 does the record show for CCS(=O)(=O)CCn1c([N+](=O)[O-])cnc1C ?
> 10 µM
